- System: human breast adenocarcinoma, MX-1
- measurementSetup: in vivo
propertyName: Premature Death
Reply with the value as a number alone.

Solved entries:
{"compound": "CC/C(=C(/CC)c1ccc(O)cc1)c1ccc(O)cc1", "targetOfAssay": "human breast adenocarcinoma, MX-1", "readoutNumber": 2}
{"compound": "CC(C)(C)c1cccc(O)c1", "targetOfAssay": "human breast adenocarcinoma, MX-1", "readoutNumber": 3}
{"compound": "O=C1c2c(O)cccc2Cc2cccc(O)c21", "targetOfAssay": "human breast adenocarcinoma, MX-1", "readoutNumber": 0}
{"compound": "Oc1ccc(CCc2ccc(CCc3ccc(O)c(O)c3)cc2)cc1O [1,4-bis(3,4-dihydroxyphenethyl)-benzene]", "targetOfAssay": "human breast adenocarcinoma, MX-1", "readoutNumber": 0}
{"compound": "Oc1ncnc2[nH]ncc12", "targetOfAssay": "human breast adenocarcinoma, MX-1", "readoutNumber": 0}
{"compound": "COc1cc(C2c3cc4c(cc3C(OC3OC5COC(c6cccs6)OC5C(O)C3O)C3COC(=O)C23)OCO4)cc(OC)c1O (centres unmarked)", "targetOfAssay": "human breast adenocarcinoma, MX-1", "readoutNumber": 0}

Now turn to the next compound.
Ask: Provide measured Premature Death on human breast adenocarcinoma, MX-1 for COc1cc(C2c3cc4c(cc3C(OC3OC5COC(C)OC5C(O)C3O)C3COC(=O)C23)OCO4)cc(OC)c1O (centres unmarked) please.
Result: 2

* * *

- System: human breast adenocarcinoma, MX-1
- measurementSetup: in vivo
propertyName: Premature Death
Reply with the value as a number alone.

Solved entries:
{"molecule": "CC(=O)Oc1ccc(C=CC=Cc2ccccc2)cc1OC(C)=O", "Premature Death": 0}
{"molecule": "COc1cc(C2c3cc4c(cc3C(O)C3COC(=O)C23)OCO4)cc(OC)c1O (stereo not shown) [4'-demethylepipodophyllotoxin (no Zn), 4'-demethylepipodophyllotoxin]", "Premature Death": 0}
{"molecule": "O=C(O)CCCCCCCC(=O)O", "Premature Death": 0}
{"molecule": "CC(Cc1ccc(O)c(O)c1)C(C)Cc1ccc(O)c(O)c1 (racemic) [dl-NDGA (no Zn), nordihydroguaiaretic acid]", "Premature Death": 0}
{"molecule": "O=C(O)C=Cc1ccc(O)cc1 [p-hydroxycinnamic acid (no Zn), p-hydroxycinnamic acid]", "Premature Death": 0}

Ask: Indicate the recorded Premature Death value for this molecule: N.N.[Cl][Pt][Cl] [platinum cis-diamine-dichloride (no Zn), platinum cis-diamine-dichloride]
Result: 0

Ask: Indicate the recorded Premature Death value for this molecule: COc1cccc2c1C(=O)c1c(O)c3c(c(O)c1C2=O)C[C@@](O)(C(C)=O)C[C@@H]3O[C@H]1C[C@H](N)[C@H](O)[C@H](C)O1
Result: 2

* * *

- Test system: human breast adenocarcinoma, MX-1
- measurementSetup: in vivo
# Premature Death values compiled below

{"molecule": "CO[C@@]12[C@H](COC(N)=O)C3=C(C(=O)C(C)=C(N)C3=O)N1C[C@@H]1N[C@@H]12", "propertyName": "Premature Death", "result": 4}
{"molecule": "O=P1(N(CCCl)CCCl)NCCCO1 (stereo not drawn) [cyclophosphamide (no Zn), cyclophosphamide]", "propertyName": "Premature Death", "result": 0}

Now turn to the next molecule.
Ask: Provide measured Premature Death on human breast adenocarcinoma, MX-1 for COc1cccc2c1C(=O)c1c(O)c3c(c(O)c1C2=O)C[C@@](O)(C(=O)CO)C[C@@H]3O[C@H]1C[C@H](N)[C@H](O)[C@H](C)O1 please.
Result: 1
